Reference for the values: ChEMBL document CHEMBL4325842

Biological target: UniProt Q05397
Sequence (Q05397 whole entry): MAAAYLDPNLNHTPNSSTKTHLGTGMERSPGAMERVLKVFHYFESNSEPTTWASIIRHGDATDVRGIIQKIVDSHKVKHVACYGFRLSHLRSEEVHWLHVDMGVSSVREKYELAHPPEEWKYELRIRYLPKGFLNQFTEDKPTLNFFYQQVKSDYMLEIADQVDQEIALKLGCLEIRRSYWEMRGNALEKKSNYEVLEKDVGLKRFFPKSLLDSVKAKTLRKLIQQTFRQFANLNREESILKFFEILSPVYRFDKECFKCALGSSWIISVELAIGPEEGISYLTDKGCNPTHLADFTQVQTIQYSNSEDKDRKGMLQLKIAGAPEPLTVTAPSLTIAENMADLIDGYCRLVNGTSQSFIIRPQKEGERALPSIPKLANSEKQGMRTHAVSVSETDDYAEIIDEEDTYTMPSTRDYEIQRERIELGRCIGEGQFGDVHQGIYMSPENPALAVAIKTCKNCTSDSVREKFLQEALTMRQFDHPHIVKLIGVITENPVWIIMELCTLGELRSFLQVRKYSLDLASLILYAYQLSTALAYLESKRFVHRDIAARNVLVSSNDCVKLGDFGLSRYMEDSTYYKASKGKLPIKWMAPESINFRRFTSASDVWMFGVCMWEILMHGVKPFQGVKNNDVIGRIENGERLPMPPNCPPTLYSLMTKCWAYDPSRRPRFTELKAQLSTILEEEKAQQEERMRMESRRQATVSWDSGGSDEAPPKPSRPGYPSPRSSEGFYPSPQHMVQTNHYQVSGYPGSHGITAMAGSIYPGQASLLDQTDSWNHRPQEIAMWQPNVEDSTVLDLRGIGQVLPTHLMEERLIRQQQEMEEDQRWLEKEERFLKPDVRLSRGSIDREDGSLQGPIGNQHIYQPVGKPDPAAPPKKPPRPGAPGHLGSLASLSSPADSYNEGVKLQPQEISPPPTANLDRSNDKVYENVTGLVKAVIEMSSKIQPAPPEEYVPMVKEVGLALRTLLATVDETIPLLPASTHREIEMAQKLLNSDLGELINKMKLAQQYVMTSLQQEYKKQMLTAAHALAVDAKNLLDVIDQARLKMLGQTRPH

| structure-smiles | IC50 (nM) |
| --- | --- |
| CC(=O)N1CCN(c2ccc(Nc3ncc(C(F)(F)F)c(N4Cc5cccc(N(C)S(C)(=O)=O)c5C4)n3)cc2)CC1 | 11 |

###

Biological target: Serine/threonine-protein kinase PLK1 (Homo sapiens)
Sequence (P53350 whole entry): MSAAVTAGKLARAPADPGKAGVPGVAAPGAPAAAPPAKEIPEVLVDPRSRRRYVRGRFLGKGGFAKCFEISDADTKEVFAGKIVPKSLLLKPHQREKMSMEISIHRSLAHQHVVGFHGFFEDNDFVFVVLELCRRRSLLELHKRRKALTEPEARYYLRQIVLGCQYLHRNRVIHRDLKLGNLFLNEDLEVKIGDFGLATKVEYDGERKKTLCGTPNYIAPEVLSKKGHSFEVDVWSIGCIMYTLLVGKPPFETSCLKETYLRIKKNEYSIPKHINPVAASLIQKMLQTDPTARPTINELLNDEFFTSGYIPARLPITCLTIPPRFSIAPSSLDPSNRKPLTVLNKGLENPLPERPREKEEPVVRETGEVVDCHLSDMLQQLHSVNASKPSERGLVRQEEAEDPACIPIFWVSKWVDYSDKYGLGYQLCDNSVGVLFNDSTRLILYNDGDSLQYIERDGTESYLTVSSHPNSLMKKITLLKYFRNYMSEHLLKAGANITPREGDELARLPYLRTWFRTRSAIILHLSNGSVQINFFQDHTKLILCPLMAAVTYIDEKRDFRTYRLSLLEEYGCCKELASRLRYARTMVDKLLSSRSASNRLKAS

| structure-smiles | target-desc | unit-symbol | IC50 |
| --- | --- | --- | --- |
| CC(=O)N1CCN(c2ccc(Nc3ncc(C(F)(F)F)c(N4Cc5cccc(N(C)S(C)(=O)=O)c5C4)n3)cc2)CC1 | Serine/threonine-protein kinase PLK1 (Homo sapiens) | nM | 8.8 |

###

Molecular target: Tyrosine-protein kinase SYK (Homo sapiens)

| structure-smiles | IC50 |
| --- | --- |
| CC(=O)N1CCN(c2ccc(Nc3ncc(C(F)(F)F)c(N4Cc5cccc(N(C)S(C)(=O)=O)c5C4)n3)cc2)CC1 | 5.1 nM |

###

Biological target: Tyrosine-protein kinase receptor UFO (Homo sapiens)
Sequence (P30530 whole entry): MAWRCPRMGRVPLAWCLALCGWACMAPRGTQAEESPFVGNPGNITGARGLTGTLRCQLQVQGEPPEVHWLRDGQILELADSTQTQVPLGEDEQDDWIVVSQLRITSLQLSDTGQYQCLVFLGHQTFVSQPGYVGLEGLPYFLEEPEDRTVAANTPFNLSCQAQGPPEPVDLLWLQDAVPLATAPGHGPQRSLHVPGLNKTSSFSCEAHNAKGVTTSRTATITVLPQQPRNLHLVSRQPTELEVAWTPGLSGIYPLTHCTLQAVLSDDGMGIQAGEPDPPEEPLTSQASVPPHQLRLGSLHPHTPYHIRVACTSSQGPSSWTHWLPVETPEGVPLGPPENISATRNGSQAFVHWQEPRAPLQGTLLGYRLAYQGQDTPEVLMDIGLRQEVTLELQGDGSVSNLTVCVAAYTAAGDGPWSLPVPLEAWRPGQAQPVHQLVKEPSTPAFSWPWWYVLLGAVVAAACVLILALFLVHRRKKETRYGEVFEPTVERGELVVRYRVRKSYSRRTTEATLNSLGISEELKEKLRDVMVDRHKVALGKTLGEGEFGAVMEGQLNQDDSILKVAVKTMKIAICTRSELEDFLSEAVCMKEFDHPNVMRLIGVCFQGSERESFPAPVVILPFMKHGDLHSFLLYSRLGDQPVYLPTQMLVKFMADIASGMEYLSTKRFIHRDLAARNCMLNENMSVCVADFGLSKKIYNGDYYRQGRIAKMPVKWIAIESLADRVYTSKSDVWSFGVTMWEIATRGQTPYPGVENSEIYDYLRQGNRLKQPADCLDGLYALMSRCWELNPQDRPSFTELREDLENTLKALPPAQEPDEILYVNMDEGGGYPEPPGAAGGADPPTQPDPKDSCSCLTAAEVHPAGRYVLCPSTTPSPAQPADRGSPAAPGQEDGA
Experiment: Inhibition of human AXL using EAIYAAPFAKKK as substrate by [gamma-33P]-ATP assay

| structure-smiles | target-desc | IC50 |
| --- | --- | --- |
| CC(=O)N1CCN(c2ccc(Nc3ncc(C(F)(F)F)c(N4Cc5cccc(N(C)S(C)(=O)=O)c5C4)n3)cc2)CC1 | Tyrosine-protein kinase receptor UFO (Homo sapiens) | < 0.5 nM |
